The values you see were collected from patent US20220281841A1.

molecular target: ROCK1 (Homo sapiens); construct: purchased DiscoverX (KINOMEscan KdELECT service); host or cells: E. coli BL21-derived (T7 phage) or HEK-293; experiment: ROCK1 kinase binding affinity, DiscoverX KINOMEscan KdELECT; details: equilibrium dissociation constant, 11-point 3-fold dilution series
Assignment: determine reported Kd for the given compounds.

Bench note: what Kd did COc1ccc2c(c1)CN(c1nccc(-c3nccc(C#Cc4ccc5[nH]nc(F)c5c4)n3)n1)C2 show?
> 30 µM

Bench note: what Kd did C(#Cc1ccnc(-c2ccnc(N3CCn4cnnc4C3)n2)n1)c1ccc2[nH]ncc2c1 show?
16 µM

Bench note: what Kd did COc1ccc2c(c1)CN(c1nccc(-c3nccc(C#Cc4cnc5[nH]ncc5c4)n3)n1)C2 show?
> 30 µM

Bench note: what Kd did C(#Cc1ccnc(-c2ccnc(N3Cc4c[nH]nc4C3)n2)n1)c1ccc2[nH]ncc2c1 show?
> 30 µM

====

target: ROCK2 (Homo sapiens); construct: purchased DiscoverX (KINOMEscan KdELECT service); host or cells: E. coli BL21-derived (T7 phage) or HEK-293; experiment: ROCK2 kinase binding affinity, DiscoverX KINOMEscan KdELECT; details: equilibrium dissociation constant, 11-point 3-fold dilution series; read-out: Kd (μM) ROCK2
Structures can show the parent of a compound that is named as a salt.
Assay metric: Kd (µM)
Entry rule: numbers only, all in µM.

Bench note: what Kd did COC(=O)c1ccc(C2CN(c3nccc(-c4nccc(C#Cc5ccc6[nH]ncc6c5)n4)n3)C2)cc1 [Ex. 49, trifluoroacetate] show?
0.25

Bench note: what Kd did Fc1ccc2c(c1)CN(c1nccc(-c3nccc(C#Cc4cc(F)c5[nH]ncc5c4)n3)n1)C2 [Ex. 14] show?
0.028

Bench note: what Kd did CN(C)CCOc1ccc2c(c1)CN(c1nccc(-c3cccc(C#Cc4ccc5[nH]ncc5c4)n3)n1)C2 [Ex. 22] show?
1.5

Bench note: what Kd did Clc1cc2c(cn1)CN(c1nccc(-c3nccc(C#Cc4ccc5[nH]ncc5c4)n3)n1)C2 [Ex. 17] show?
0.049

Bench note: what Kd did COCCOc1cc2c(cn1)CN(c1nccc(-c3nccc(C#Cc4ccc5[nH]ncc5c4)n3)n1)C2 [Ex. 37] show?
0.11

Bench note: what Kd did CN1CCN(c2ccc3c(c2)CN(c2nccc(-c4cccc(C#Cc5ccc6[nH]ncc6c5)n4)n2)C3)CC1 [Ex. 23] show?
0.66

Bench note: what Kd did C(#Cc1ccnc(-c2ccnc(N3CCN(c4ccccc4)CC3)n2)n1)c1ccc2[nH]ncc2c1 [Ex. 52] show?
0.34

Bench note: what Kd did COc1ccc2c(c1)CN(c1nccc(-c3cccc(C#Cc4ccc5[nH]ncc5c4)n3)n1)C2 [Ex. 18] show?
0.12

====

molecular target: ROCK1 (Homo sapiens, UniProt Q13464); construct: purchased DiscoverX (KINOMEscan KdELECT service); host or cells: E. coli BL21-derived (T7 phage) or HEK-293; test: ROCK1 kinase binding affinity, DiscoverX KINOMEscan KdELECT; conditions: equilibrium dissociation constant, 11-point 3-fold dilution series
Sequence (Q13464 whole entry): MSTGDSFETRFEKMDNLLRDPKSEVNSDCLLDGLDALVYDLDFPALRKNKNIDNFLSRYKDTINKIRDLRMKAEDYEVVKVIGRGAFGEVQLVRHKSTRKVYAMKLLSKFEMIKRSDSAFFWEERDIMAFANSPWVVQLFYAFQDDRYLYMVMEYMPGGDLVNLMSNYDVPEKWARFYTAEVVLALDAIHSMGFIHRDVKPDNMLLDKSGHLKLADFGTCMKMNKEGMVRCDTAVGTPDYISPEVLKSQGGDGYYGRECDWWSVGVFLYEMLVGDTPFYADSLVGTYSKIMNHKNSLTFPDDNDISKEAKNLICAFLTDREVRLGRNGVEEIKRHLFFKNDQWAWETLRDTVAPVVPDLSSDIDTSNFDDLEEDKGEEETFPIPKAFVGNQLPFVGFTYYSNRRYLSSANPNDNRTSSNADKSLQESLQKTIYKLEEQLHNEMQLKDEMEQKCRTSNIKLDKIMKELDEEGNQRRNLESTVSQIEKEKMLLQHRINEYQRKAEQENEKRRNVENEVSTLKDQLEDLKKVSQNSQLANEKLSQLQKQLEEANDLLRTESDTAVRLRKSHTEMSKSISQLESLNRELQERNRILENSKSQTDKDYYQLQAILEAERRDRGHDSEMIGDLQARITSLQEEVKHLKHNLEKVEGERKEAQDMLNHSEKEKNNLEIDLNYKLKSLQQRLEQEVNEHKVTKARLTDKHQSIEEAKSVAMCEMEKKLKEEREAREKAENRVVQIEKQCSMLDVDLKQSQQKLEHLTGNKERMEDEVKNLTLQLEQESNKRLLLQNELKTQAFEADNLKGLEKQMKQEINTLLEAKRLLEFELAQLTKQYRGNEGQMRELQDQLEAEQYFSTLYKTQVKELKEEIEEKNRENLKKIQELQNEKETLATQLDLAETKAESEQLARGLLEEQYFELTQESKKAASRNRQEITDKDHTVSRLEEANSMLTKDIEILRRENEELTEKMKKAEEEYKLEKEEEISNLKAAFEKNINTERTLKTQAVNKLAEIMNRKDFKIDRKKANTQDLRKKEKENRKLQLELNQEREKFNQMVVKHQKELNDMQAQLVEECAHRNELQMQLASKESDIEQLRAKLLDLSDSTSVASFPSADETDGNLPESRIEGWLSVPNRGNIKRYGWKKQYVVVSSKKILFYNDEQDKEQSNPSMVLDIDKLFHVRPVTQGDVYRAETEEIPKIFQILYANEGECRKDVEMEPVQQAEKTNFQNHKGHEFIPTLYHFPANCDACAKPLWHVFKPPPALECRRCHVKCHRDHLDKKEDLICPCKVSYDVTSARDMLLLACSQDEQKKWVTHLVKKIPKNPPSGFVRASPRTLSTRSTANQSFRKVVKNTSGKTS
Assay metric: Kd

Bench note: what Kd did Oc1cc2c(cn1)CN(c1nccc(-c3nccc(C#Cc4ccc5[nH]ncc5c4)n3)n1)C2 show?
> 6 µM

Bench note: what Kd did Fc1cc(C#Cc2ccc3[nH]ncc3c2)cc(-c2ccnc(N3Cc4ccc(Cl)cc4C3)n2)c1 show?
> 30 µM

Bench note: what Kd did Fc1ccc2c(c1)CN(c1nccc(-c3nccc(C#Cc4ccc5[nH]nc(F)c5c4)n3)n1)C2 show?
> 30 µM

Bench note: what Kd did Fc1cc(C#Cc2ccc3[nH]ncc3c2)cc(-c2ccnc(N3Cc4ccc(F)cc4C3)n2)c1 show?
> 30 µM

Bench note: what Kd did C(#Cc1ccnc(-c2ccnc(N3CCN(c4nccs4)CC3)n2)n1)c1ccc2[nH]ncc2c1 show?
> 30 µM

====

target: ROCK2 (Homo sapiens, UniProt O75116); construct: purchased DiscoverX (KINOMEscan KdELECT service); host or cells: E. coli BL21-derived (T7 phage) or HEK-293; test: ROCK2 kinase binding affinity, DiscoverX KINOMEscan KdELECT; details: ROCK2 over ROCK1, from Kd values; N/C = not calculated
Sequence (O75116 whole entry): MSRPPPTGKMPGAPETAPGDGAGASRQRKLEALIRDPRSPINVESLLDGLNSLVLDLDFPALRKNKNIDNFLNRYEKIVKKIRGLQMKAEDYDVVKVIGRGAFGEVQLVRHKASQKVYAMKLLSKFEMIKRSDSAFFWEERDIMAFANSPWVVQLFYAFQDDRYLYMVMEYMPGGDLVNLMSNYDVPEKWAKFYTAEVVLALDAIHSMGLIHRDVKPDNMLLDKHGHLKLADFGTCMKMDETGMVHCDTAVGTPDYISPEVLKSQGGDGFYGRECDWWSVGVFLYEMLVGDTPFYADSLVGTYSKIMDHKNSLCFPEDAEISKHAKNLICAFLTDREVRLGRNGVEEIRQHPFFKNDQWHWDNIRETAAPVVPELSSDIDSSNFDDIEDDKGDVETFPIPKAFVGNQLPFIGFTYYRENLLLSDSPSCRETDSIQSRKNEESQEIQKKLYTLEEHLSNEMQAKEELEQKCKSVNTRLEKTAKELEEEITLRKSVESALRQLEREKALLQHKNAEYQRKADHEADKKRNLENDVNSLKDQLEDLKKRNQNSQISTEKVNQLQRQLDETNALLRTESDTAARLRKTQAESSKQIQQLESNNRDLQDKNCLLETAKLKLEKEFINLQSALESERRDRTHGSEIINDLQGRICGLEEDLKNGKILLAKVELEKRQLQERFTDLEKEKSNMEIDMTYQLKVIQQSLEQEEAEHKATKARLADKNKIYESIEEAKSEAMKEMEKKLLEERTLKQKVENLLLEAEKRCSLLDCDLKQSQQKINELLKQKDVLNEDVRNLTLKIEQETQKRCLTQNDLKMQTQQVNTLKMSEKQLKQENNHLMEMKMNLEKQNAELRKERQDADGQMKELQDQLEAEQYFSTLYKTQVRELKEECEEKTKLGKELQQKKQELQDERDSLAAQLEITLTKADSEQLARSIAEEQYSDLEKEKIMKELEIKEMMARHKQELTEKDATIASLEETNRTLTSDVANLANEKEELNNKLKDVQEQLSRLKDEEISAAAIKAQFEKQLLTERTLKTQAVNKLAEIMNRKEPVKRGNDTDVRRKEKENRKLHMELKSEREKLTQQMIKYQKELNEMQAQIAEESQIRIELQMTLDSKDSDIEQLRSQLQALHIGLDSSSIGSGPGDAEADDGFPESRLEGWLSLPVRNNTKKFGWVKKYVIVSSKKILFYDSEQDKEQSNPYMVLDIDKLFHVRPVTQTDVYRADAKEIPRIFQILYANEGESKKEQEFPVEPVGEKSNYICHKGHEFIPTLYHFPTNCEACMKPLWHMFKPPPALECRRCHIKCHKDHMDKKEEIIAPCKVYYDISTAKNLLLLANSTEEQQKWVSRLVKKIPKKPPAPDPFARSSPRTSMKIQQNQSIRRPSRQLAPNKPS
Structures can show the parent of a compound that is named as a salt.
Assay metric: ROCK 2 Selectivity
Keep the answer to the number alone.

Bench note: what ROCK 2 Selectivity did FC(F)(F)c1ccc2c(c1)CN(c1nccc(-c3nccc(C#Cc4ccc5[nH]ncc5c4)n3)n1)C2 [Ex. 45, trifluoroacetate] show?
90.9

Bench note: what ROCK 2 Selectivity did O=C(COc1ccc2c(c1)CN(c1nccc(-c3nccc(C#Cc4ccc5[nH]ncc5c4)n3)n1)C2)NC1CC1 [Ex. 46, trifluoroacetate] show?
56.5

Bench note: what ROCK 2 Selectivity did CN1CCN(c2ccc3c(c2)CN(c2nccc(-c4nccc(C#Cc5ccc6[nH]ncc6c5)n4)n2)C3)CC1 show?
144

Bench note: what ROCK 2 Selectivity did Cc1nnc2n1CCN(c1nccc(-c3nccc(C#Cc4ccc5[nH]ncc5c4)n3)n1)C2 show?
10.3

Bench note: what ROCK 2 Selectivity did O=C(O)c1ccc(C2CN(c3nccc(-c4nccc(C#Cc5ccc6[nH]ncc6c5)n4)n3)C2)cc1 show?
73

Bench note: what ROCK 2 Selectivity did Fc1ccc(N2CCN(c3nccc(-c4nccc(C#Cc5ccc6[nH]ncc6c5)n4)n3)CC2)cc1 show?
58.8

Bench note: what ROCK 2 Selectivity did C(#Cc1ccnc(-c2ccnc(N3CCC(c4ccccc4)CC3)n2)n1)c1ccc2[nH]ncc2c1 show?
28.9

Bench note: what ROCK 2 Selectivity did COc1ccc2c(c1)CN(c1nccc(-c3nccc(C#Cc4ccc5[nH]ncc5c4)n3)n1)C2 show?
119

Bench note: what ROCK 2 Selectivity did Clc1ccc(N2CCN(c3nccc(-c4nccc(C#Cc5ccc6[nH]ncc6c5)n4)n3)CC2)cc1 show?
44.9

Bench note: what ROCK 2 Selectivity did COc1cccc(C2CCN(c3nccc(-c4nccc(C#Cc5ccc6[nH]ncc6c5)n4)n3)C2)c1 (stereo not drawn) show?
27.7

Bench note: what ROCK 2 Selectivity did Fc1ccc2c(c1)CN(c1nccc(-c3nccc(C#Cc4ccc5[nH]ncc5c4)n3)n1)C2 show?
1164

Bench note: what ROCK 2 Selectivity did C(#Cc1ccnc(-c2ccnc(N3Cc4ccccc4C3)n2)n1)c1ccc2[nH]ncc2c1 show?
139

Bench note: what ROCK 2 Selectivity did C(#Cc1ccnc(-c2ccnc(N3CC(c4ccccc4)C3)n2)n1)c1ccc2[nH]ncc2c1 [Ex. 48, trifluoroacetate] show?
36.7

Bench note: what ROCK 2 Selectivity did C(#Cc1ccnc(-c2ccnc(N3CCN(c4ncc[nH]4)CC3)n2)n1)c1ccc2[nH]ncc2c1 show?
5

Bench note: what ROCK 2 Selectivity did Oc1ccc(N2CCN(c3nccc(-c4nccc(C#Cc5ccc6[nH]ncc6c5)n4)n3)CC2)cc1 show?
118.2

Bench note: what ROCK 2 Selectivity did FC(F)(F)c1nnc2n1CCN(c1nccc(-c3nccc(C#Cc4ccc5[nH]ncc5c4)n3)n1)C2 show?
47.1

====

target: ROCK2 (Homo sapiens); construct: purchased DiscoverX (KINOMEscan KdELECT service); host or cells: E. coli BL21-derived (T7 phage) or HEK-293; test: ROCK2 kinase binding affinity, DiscoverX KINOMEscan KdELECT; conditions: equilibrium dissociation constant, 11-point 3-fold dilution series; read-out: Kd (μM) ROCK2
Assignment: determine reported Kd for the given compounds.
Entry rule: numbers only, all in µM.

Bench note: what Kd did C(#Cc1ccnc(-c2ccnc(N3CCn4cnnc4C3)n2)n1)c1ccc2[nH]ncc2c1 show?
0.75

Bench note: what Kd did Brc1ccc2c(c1)CN(c1nccc(-c3nccc(C#Cc4ccc5[nH]ncc5c4)n3)n1)C2 show?
0.0058

Bench note: what Kd did C(#Cc1ccnc(-c2ccnc(N3Cc4c[nH]nc4C3)n2)n1)c1ccc2[nH]ncc2c1 show?
0.072

Bench note: what Kd did CNC(=O)COc1ccc2c(c1)CN(c1nccc(-c3nccc(C#Cc4ccc5[nH]ncc5c4)n3)n1)C2 show?
0.0023

Bench note: what Kd did COc1ccc2c(c1)CN(c1nccc(-c3nccc(C#Cc4ccc5[nH]ncc5c4)n3)n1)C2 show?
0.0069

Bench note: what Kd did C(#Cc1ccnc(-c2ccnc(N3CCC(c4ccccc4)C3)n2)n1)c1ccc2[nH]ncc2c1 (centres unmarked) show?
0.26

Bench note: what Kd did O=C(O)c1ccc(C2CN(c3nccc(-c4nccc(C#Cc5ccc6[nH]ncc6c5)n4)n3)C2)cc1 show?
0.15

Bench note: what Kd did CN(C)C(=O)COc1cc2c(cn1)CN(c1nccc(-c3nccc(C#Cc4ccc5[nH]ncc5c4)n3)n1)C2 show?
0.64

Bench note: what Kd did COc1cccc(C2CCN(c3nccc(-c4nccc(C#Cc5ccc6[nH]ncc6c5)n4)n3)C2)c1 (centres unmarked) show?
0.22

Bench note: what Kd did C(#Cc1ccnc(-c2ccnc(N3CCN(c4nccs4)CC3)n2)n1)c1ccc2[nH]ncc2c1 show?
0.33

Bench note: what Kd did COc1cc2c(cn1)CN(c1nccc(-c3nccc(C#Cc4ccc5[nH]ncc5c4)n3)n1)C2 show?
0.17

Bench note: what Kd did COc1ccc2c(c1)CN(c1nccc(-c3nccc(C#Cc4cc(F)c5[nH]ncc5c4)n3)n1)C2 show?
0.012

Bench note: what Kd did CN(C)C(=O)COc1ccc2c(c1)CN(c1nccc(-c3nccc(C#Cc4ccc5[nH]ncc5c4)n3)n1)C2 show?
0.11

Bench note: what Kd did C(#Cc1ccnc(-c2ccnc(N3Cc4ccc(OCCN5CCOCC5)cc4C3)n2)n1)c1ccc2[nH]ncc2c1 show?
0.083

Bench note: what Kd did Clc1ccc(N2CCN(c3nccc(-c4nccc(C#Cc5ccc6[nH]ncc6c5)n4)n3)CC2)cc1 show?
0.49
